All figures here come from patent US7820683B2.

SYSTEM_TESTED: erbB2 tyrosine kinase (Homo sapiens)
Construct: Recombinant intracellular fragments of EGFR, erbB2 and erbB4
Sequence (P04626 676-1255 limits assumed): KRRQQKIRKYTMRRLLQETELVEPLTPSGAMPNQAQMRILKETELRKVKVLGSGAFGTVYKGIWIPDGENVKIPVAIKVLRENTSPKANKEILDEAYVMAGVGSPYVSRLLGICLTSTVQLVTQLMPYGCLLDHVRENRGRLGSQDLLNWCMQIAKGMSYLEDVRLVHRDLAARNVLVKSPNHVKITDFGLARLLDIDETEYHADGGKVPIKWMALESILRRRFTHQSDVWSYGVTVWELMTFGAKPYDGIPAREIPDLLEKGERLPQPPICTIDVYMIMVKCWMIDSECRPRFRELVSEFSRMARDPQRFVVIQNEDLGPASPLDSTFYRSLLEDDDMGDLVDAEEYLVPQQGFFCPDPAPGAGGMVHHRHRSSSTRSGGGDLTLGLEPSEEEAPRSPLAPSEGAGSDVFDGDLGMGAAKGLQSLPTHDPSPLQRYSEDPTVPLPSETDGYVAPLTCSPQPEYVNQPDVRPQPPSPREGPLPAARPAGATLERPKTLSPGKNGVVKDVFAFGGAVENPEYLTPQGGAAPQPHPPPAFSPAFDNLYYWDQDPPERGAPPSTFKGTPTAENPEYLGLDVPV
METHOD_NOTES: Protein tyrosine kinase phosphorylation assay, Test (a), erbB2
RUN_CONDITIONS: recombinant intracellular fragment, ATP at Km; read-out: IC50 Test (a): Inhibition of erbB2 tyrosine kinase protein phosphorylation
pIC50: −log10 of the molar value.
MEASURED_PROPERTY: pIC50

1. C[C@@H](Oc1cccc2ncnc(Nc3ccc4c(cnn4Cc4ccccn4)c3)c12)C(=O)N(C)CCO : 7.92

###

SYSTEM_TESTED: EGFR tyrosine kinase (Homo sapiens, UniProt P00533)
Construct: Recombinant intracellular fragments of EGFR, erbB2 and erbB4
Sequence (P00533 669-1210 limits assumed): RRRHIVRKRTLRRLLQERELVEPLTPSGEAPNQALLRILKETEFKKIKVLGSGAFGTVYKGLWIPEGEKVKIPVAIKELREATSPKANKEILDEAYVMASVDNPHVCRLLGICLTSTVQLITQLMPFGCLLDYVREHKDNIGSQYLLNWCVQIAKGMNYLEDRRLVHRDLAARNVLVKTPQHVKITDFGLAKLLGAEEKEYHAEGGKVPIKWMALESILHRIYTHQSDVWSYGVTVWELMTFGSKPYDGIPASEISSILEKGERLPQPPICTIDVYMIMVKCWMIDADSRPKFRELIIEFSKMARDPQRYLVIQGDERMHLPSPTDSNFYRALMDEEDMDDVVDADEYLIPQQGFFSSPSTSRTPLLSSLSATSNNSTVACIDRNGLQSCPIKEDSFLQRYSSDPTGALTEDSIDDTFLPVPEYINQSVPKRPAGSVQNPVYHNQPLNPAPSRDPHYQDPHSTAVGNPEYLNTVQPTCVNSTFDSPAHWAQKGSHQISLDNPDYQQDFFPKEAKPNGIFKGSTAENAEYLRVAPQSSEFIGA
METHOD_NOTES: Protein tyrosine kinase phosphorylation assay, Test (a), EGFR
RUN_CONDITIONS: recombinant intracellular fragment, ATP at Km; read-out: IC50 Test (a): Inhibition of EGFR tyrosine kinase protein phosphorylation
pIC50: −log10 of the molar value.
MEASURED_PROPERTY: pIC50

1) C[C@@H](Oc1cccc2ncnc(Nc3ccc4c(cnn4Cc4ccccn4)c3)c12)C(=O)N(C)CCO : 6.68
